Tested on: SR
protocol: NCI tumour cell line growth inhibition, 48 h
Active and inactive are the calls of the source. Cut-off read from the data, not from the text of the source: active = GI50 up to about 1.1 µM and inactive = higher.
Lab note: assign the record to one of y (active), n (inactive)

CCCNC(=O)c1cc(NC(=O)c2cc(NC(=O)CCS(=O)(=O)OC)cn2C)cn1C: n
Nc1nc(NCC2(CO)CCC2)cc(=O)[nH]1: n
CC(=O)N1C(C(=O)NN2CCOCC2)CSC1c1ccccc1 (stereo not given): n
O=c1cc[nH]c2c1ccc1ncccc12: n
C/C=C1/CC(C)C(C)(O)C(=O)OCC2C(O)CN3CCC(OC1=O)C23 (stereo not given): n
CCCCCCCSCC1OC(n2cnc3c(N)ncnc32)C(O)C1O (stereo not given): n
COc1ccc(NCC#N)cc1: n
CN(C)CC1(Cc2ccccc2)CC/C(=C\c2ccccc2)C1=O (stereo not given): n
O=C(N/N=C\c1ccc2ccccc2c1)Nc1ccc([N+](=O)[O-])cc1: n
C=C1C(=O)O[C@H]2C[C@@]3(COC(C)=O)C=COC=C(COC(=O)C(C)C)C3CC12 (stereo not given in full): n

In: // outcome(item) with item = `CC1=C(c2cc(C(=O)Nc3cccc(C(F)(F)F)c3)nc(NC#N)n2)Sc2ccccc2N1`
Out: n

In: Test call for this molecule, please: `O=C(Nc1nncs1)NS(=O)(=O)n1cnc2ccccc21`
Out: n

In: // return assay outcome for CCCC(O)[C@@]1(CC)CC(C)C(O)(C2(C)C[C@H](C)[C@@H](C(CC)C(=O)C(C)[C@@H](O)[C@H](C)C3OC(O)(C(CC)C(=O)O)[C@@H](C)C(O)C3CC)O2)O1 (stereo not given in full)
Out: y

In: Outcome logged for `CC1(C)C(=O)/C=C\C(=O)C(C)(C)C(=O)/C=C\C(=O)C(C)(C)C(=O)/C=C\C(=O)C(C)(C)C(=O)/C=C\C1=O` in this assay:
Out: n

In: Please share the test call associated with `CC(=O)OC(OC(C)=O)c1ccc2ccc3cccc4ccc1c2c34` .
Out: n

In: Could you please tell me the result logged for `Cc1cc(-c2no[n+]([O-])c2-c2cc(C)sc2S(C)(=O)=O)c(S(C)(=O)=O)s1` in this assay?
Out: n

In: Which outcome was entered for the molecule O=C(Cc1ccccc1)NN1C(=O)C(Cl)C1c1ccc(Cl)cc1 (stereo not given) in this test?
Out: n

In: Name the outcome recorded for `CN(C)CCCN1c2ccccc2C(C)(C)c2ccccc21` in the assay.
Out: n

In: # lookup: test call for `CCOP(=O)(OCC)/C(C#N)=C/c1ccco1`
Out: n

In: Hi, sorry to bother you, what did the test record for COc1ccc(/C=C2/SC(c3ccc(Cl)cc3)N(NC(=O)CCCCCCCCC(=O)NN3C(=O)/C(=C\c4ccc(OC)c(OC)c4)SC3c3ccc(Cl)cc3)C2=O)cc1OC (stereo not given) ?
Out: n
